B1: PSD2 (parent)
chain: LTHFSRRYCQCNPDDSTSEDGIHT

- Variants of: B1
- Test Method Notes: protein stability index of a GFP-peptide fusion (GPS, HEK-293T) (PSI 1-6); higher = more stable;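 note: lentivirally expressed fusions sorted by FACS into six bins by GFP to DsRed ratio, PSI derived from sequencing read proportions per bin multiplied by bin number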
- Condition Context: c terminus: a fixed tail appended
Entries annotated with measured protein stability index
No unit in the answer, please; the number alone is enough.

Known protein stability index results, listed for orientation:
Item Sequence	protein stability index
LTHFSRRYCQCNPDDSTQEDGIHT [S18Q]	3.43
LTHFSRRYCQCNPDDSTAEDGIHT [S18A]	3.7
LTHFSRRYCQQNPDDSTSEDGIHT [C11Q]	4.71
LTHFSRRYCKCNPDDSTSEDGIHT [Q10K]	2.71
LTHFSRRYCQCNPDDSTSEFGIHT [D20F]	2.69

Query string: What value of measured protein stability index is listed for LTHFSRIYCQCNPDDSTSEDGIHT [R7I] ?
Result string: 3.64

Query string: Which measured protein stability index value corresponds to LTHFSRRYCQCNPDDSPSEDGIHT [T17P] ?
Result string: 3.68

Query string: Return reported protein stability index; argument: LTHFSRRYCQCNCDDSTSEDGIHT [P13C]
Result string: 2.73

Query string: What value of protein stability index has been reported for the following variant? LHHFSRRYCQCNPDDSTSEDGIHT [T2H]
Result string: 3.9

Query string: Find the recorded protein stability index belonging to LTHFSRRYCQCNPRDSTSEDGIHT [D14R] and report it.
Result string: 2.24

Query string: Quick one: protein stability index of LTHFSRRYCQCNPDDSMSEDGIHT [T17M] ?
Result string: 3.09

Query string: Entry LTHFSRRYCQCNPDDSTSESGIHT [D20S] has what protein stability index?
Result string: 2.42

Query string: Field request: protein stability index | item: LTGFSRRYCQCNPDDSTSEDGIHT [H3G]
Result string: 2.92

Query string: State the recorded protein stability index for this entry: LTHFSRRYCQCNPDSSTSEDGIHT [D15S]
Result string: 2.96

Query string: I have this variant here, LTHFSRRYCQCNPDDSTSECGIHT [D20C] , and I need its recorded protein stability index.
Result string: 3.98

Query string: What value of protein stability index has been reported for the following variant? LTHFSRRYCQCNPDDSTSFDGIHT [E19F]
Result string: 1.94
